# Test system: EKVX NSCLC
# Assay Remarks: NCI tumour cell line growth inhibition, 48 h
Where TGI equals or exceeds 30 µM, the correct label is Criterion met; where it does not, the label is Criterion not met.

Solved cases (8 shown):
Query :: Dear colleague, could you confirm whether CCCCCCCCCCCCCCCC(=O)OCC1OC(OCCCC)[C@H](O[C@@H]2OC(C)C(OC(=O)CCC)C(O)C2O)C(O)C1O (stereo partly specified) has TGI at or above 30 µM?
Result :: Criterion met

Query :: Dear colleague, could you confirm whether O=C(Nc1ccc(Nc2ccc(NC(=O)c3ccccc3)c3c2C(=O)c2ccccc2C3=O)c2c1C(=O)c1ccccc1C2=O)c1ccccc1 has TGI at or above 30 µM?
Result :: Criterion met

Query :: Dear colleague, could you confirm whether COC(=O)c1ccccc1/C=C1\Cc2ccc3c(c2C1=O)CCC3 has TGI at or above 30 µM?
Result :: Criterion met

Query :: Dear colleague, could you confirm whether O=C(Oc1ccc(C(c2c(O)c3ccccc3oc2=O)c2c(O)c3ccccc3oc2=O)cc1)c1ccc(C(=O)c2ccccc2)cc1 has TGI at or above 30 µM?
Result :: Criterion met

Query :: Dear colleague, could you confirm whether COC(=O)c1cc(C#N)[nH]c1-c1ccc(Br)s1 has TGI at or above 30 µM?
Result :: Criterion not met

Query :: Dear colleague, could you confirm whether Fc1ccc(C2CC(c3cccc(Nc4ccncc4)c3)=NN2c2ccccc2)cc1 (stereo unspecified) has TGI at or above 30 µM?
Result :: Criterion not met

Query :: Dear colleague, could you confirm whether CCOc1cc(CC[N+](C)(C)C)c2c(ccc3ccc(OC)c(OC)c32)c1OC has TGI at or above 30 µM?
Result :: Criterion met

Query :: Dear colleague, could you confirm whether O=C(CNc1ccc([N+](=O)[O-])cc1)Nn1c(-c2ccccc2)nc2ccccc2c1=O has TGI at or above 30 µM?
Result :: Criterion not met

***
Query :: Dear colleague, could you confirm whether CC(=O)n1nc(-c2[nH]c(C)c(-c3nn(C(C)=O)c(=S)o3)c2C)oc1=S has TGI at or above 30 µM?
Result :: Criterion met

Query :: Dear colleague, could you confirm whether COc1ccc(/C=C/c2cc(O)cc(OC3OC(CO)C(O)C(O)C3O)c2)cc1O (stereo unspecified) has TGI at or above 30 µM?
Result :: Criterion met

Query :: Dear colleague, could you confirm whether O=C(O)C1CC[N-]CC1.O=C(O)C1CC[N-]CC1.[NH2-].[NH2-].[Pt+4] has TGI at or above 30 µM?
Result :: Criterion met

---

# Tested on: SK-MEL-28 melanoma
# Assay Remarks: NCI tumour cell line growth inhibition, 48 h
Assign TGI to each entry below.

The examples below pair each entry with its known result.
Query :: Look up and state reported TGI for Oc1ccc(/C=N/NC(=S)Nc2ccccc2)nc1
Result :: > 100 µM

Query :: Look up and state reported TGI for NC(N)=N/N=C/c1c(-c2ccc([N+](=O)[O-])cc2)nc2sc(Cl)cn12
Result :: 3.38 µM

Consider the additional molecule presented here.
Query :: Look up and state reported TGI for Cc1ccc(S(=O)(=O)NCCCSCCN)cc1
Result :: > 100 µM

---

Assign GI50 to each entry below.
# System: BT-549 breast
# Assay Remarks: NCI tumour cell line growth inhibition, 48 h

Query :: Look up and state reported GI50 for Cc1cc(NS(=O)(=O)c2ccc(-c3cnc(C4CC4)o3)cc2)ccc1Cl
Result :: 1.06 µM

Query :: Look up and state reported GI50 for CN1CCC(=C(c2ccc(Cl)cc2)c2ccccn2)CC1
Result :: 79.8 µM

Query :: Look up and state reported GI50 for Cn1cc(Nc2nccc(-c3ccc4c(c3)CN(C3COC3)CC[C@H]4NC(=O)c3cn(C(C)(C)C)nn3)n2)cn1
Result :: > 100 µM

Query :: Look up and state reported GI50 for CCCCCCCCCCCCCCCC(=O)OCC1OC(OCCCC)[C@H](O[C@@H]2OC(C)C(OC(=O)CCC)C(O)C2O)C(O)C1O (some centres not stated)
Result :: 23.4 µM

Query :: Look up and state reported GI50 for C=C1CC[C@@](C)(c2cc(Br)c(C)cc2OC(C)=O)[C@H]1C
Result :: 19 µM

Query :: Look up and state reported GI50 for COC(=O)COc1ccccc1/C=C1/N=C(c2ccccc2)N(c2c(C)n(C)n(-c3ccccc3)c2=O)C1=O
Result :: 40.7 µM

Query :: Look up and state reported GI50 for C/C=C(/C)C(=O)OC1C=C(CO)C(=O)C(OC(=O)C2(C)OC2C)C1C(C)C (configuration not stated)
Result :: 2.02 µM

Query :: Look up and state reported GI50 for COc1cc(C2C=C(C)N=C3SC=C(C)N32)cc(OC)c1OC (configuration not stated)
Result :: 0.531 µM

Working through the 2 compounds below one at a time, give GI50 for each.
1. Cc1ccc(/C=C(/C#N)n2nnc3cccc(F)c32)cc1
2. CC(C)(Oc1cccc(N2CCC[C@@H](C(=O)N(Cc3ccc(-c4cn[nH]c4)cc3)C3CC3)C2)c1)C(=O)N1CCNCC1

Result ::
["0.634 µM", "13.3 µM"]

Working through the 2 compounds below one at a time, give GI50 for each.
1. CN1C(=O)[C@@H](CC2CCCC2)N(C2CCCC2)c2nc(Nc3cc(Cl)c(O)c(Cl)c3)ncc21
2. Cc1ncnc2c1ccn2[C@@H]1C[C@H](Oc2cc(C(F)F)c(F)c3c2CNCC3)[C@@H](O)[C@H]1O

Result ::
1: 18.2 µM; 2: > 100 µM

---

# System: SR leukemia
# Assay Remarks: NCI tumour cell line growth inhibition, 48 h
Parameter Measured: TGI

Query :: Look up and state reported TGI for OCC1NC(CO)C(O)C1O (centres undefined)
Result :: > 100 µM

Query :: Look up and state reported TGI for CC[C@]1(O)CC2CN(CCc3c([nH]c4ccccc34)C(C(=O)OC)(c3cc4c(cc3OC)N(C=O)[C@H]3[C@@](O)(C(=O)OC)[C@H](OC(C)=O)[C@]5(CC)[C@@H]6C[C@@H]6CN6CC[C@]43[C@@H]65)C2)C1 (some centres undefined)
Result :: 0.247 µM

Query :: Look up and state reported TGI for CCN(CC)CCOc1ccc2c(-c3ccccc3)c(-c3ccc(OC)cc3)c(=O)oc2c1
Result :: 4.33 µM

Working through the 2 compounds below one at a time, give TGI for each.
1. C/C(=C\CNc1ncnc2c1ncn2C1CCCCO1)COP(=O)(O)O (centres undefined)
2. OC(Cc1cnnc2ccccc12)C(Cl)(Cl)Cl (centres undefined)

Result ::
["> 100 µM", "> 10 µM"]

Working through the 2 compounds below one at a time, give TGI for each.
1. C=C1C2CCCC1C1(S(C)(=O)=O)CCCCC21O (centres undefined)
2. Cc1cccc2c(N)c3cccc(C(=O)NCCNCCN)c3nc12

Result ::
1. > 100 µM
2. > 100 µM

Working through the 7 compounds below one at a time, give TGI for each.
1. O=C(CCl)N1CCN(c2ccccn2)CC1
2. O=C(Oc1ccc(C(c2c(O)c3ccccc3oc2=O)c2c(O)c3ccccc3oc2=O)cc1)c1ccc(C(=O)c2ccccc2)cc1
3. CN1C(=O)C(O)CC1c1ccccc1F (centres undefined)
4. COc1cc2c(SCCN(C)C)nc3ccccc3c2c2ccccc12
5. COC1=CC(=O)C2=C(C1=O)[C@H]1CC[C@]3(C)C(=O)CC[C@H]3[C@@H]1CC2
6. O=c1[nH]c(-c2ccccc2)nc2cc([N+](=O)[O-])c(/C(Cl)=C/c3ccccc3)cc12
7. COC(=O)C1=C(N)C2=C(N)Oc3ccccc3C2CC1=C(C#N)C#N (centres undefined)

Result ::
> 100 µM
55.7 µM
> 100 µM
4.42 µM
> 100 µM
> 100 µM
> 100 µM

---

Assign TGI to each entry below.
# System: SK-OV-3 ovarian
# Assay Remarks: NCI tumour cell line growth inhibition, 48 h

The examples below pair each entry with its known result.
Query :: Param request: TGI | system SK-OV-3 ovarian | item CC(=O)NNc1nc(C)c(C(=O)/C=C/c2ccc(N(C)C)cc2)s1
Result :: > 100 µM

Query :: Param request: TGI | system SK-OV-3 ovarian | item CC(=O)CCC[C@@H](C)[C@@H]1O[C@H]([C@@]2(C)CCC(=O)O2)CC2[C@H]1OC(=O)C21CC1 (stereo partly drawn)
Result :: > 100 µM

Query :: Param request: TGI | system SK-OV-3 ovarian | item CSc1ncc2c(C#N)c3n(C)c4ccccc4n3c(=O)c2n1
Result :: > 100 µM

Query :: Param request: TGI | system SK-OV-3 ovarian | item CCc1nc(N)nc(N)c1-c1ccc(N2CCNCC2)c([N+](=O)[O-])c1
Result :: > 100 µM

Query :: Param request: TGI | system SK-OV-3 ovarian | item CCOC(=O)C(Cc1ccccc1)n1c(O)c(/C=N/c2ncc(Cc3ccc(Cl)cc3Cl)s2)sc1=S (stereo not drawn)
Result :: 11.8 µM

Working through the 3 molecules below one at a time, give TGI for each.
1. C=C1[C@@H](OC(C)=O)/C=C/C2C3C(=O)[C@@](C)(OC(C)=O)[C@H]([C@H](OC(C)=O)[C@]4(O)[C@@H](C)C(=O)O[C@H]4[C@H]1Cl)[C@@]23C (stereo partly drawn)
2. Cc1cc(NS(=O)(=O)c2ccc(NC(=O)c3cccc4c(Nc5ccc(S(=O)(=O)Nc6cc(C)on6)cc5)c5ccc(Cl)cc5nc34)cc2)no1
3. C#CC(O)/C=C/C(O)CCCC(O)CC#CC(O)C#CCCCCC(O)/C=C/CCCCCC(=O)CCCCCCCCCCCCCC(O)C(O)C#CC(=O)O (stereo not drawn)

Result ::
["> 100 µM", "> 100 µM", "> 25 µM"]
